- study.system: Rhodopsin (Bos taurus) (UniProt P02699)
- Sequence (P02699 whole entry): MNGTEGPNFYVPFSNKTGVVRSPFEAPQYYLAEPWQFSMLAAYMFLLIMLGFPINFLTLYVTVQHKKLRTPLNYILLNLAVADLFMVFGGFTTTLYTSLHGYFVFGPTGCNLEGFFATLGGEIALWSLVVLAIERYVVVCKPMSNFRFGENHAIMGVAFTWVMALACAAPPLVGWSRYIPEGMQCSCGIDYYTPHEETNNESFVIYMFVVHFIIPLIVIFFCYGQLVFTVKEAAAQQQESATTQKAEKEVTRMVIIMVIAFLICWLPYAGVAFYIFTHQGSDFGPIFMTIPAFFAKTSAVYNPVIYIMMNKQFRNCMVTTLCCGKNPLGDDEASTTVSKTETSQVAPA
- assay.details: Agonist activity at bovine rhodopsin assessed as opsin mediated cognate G protein transducer activation by fluorescence assay
- Type: functional
- Set-up: concentration or dose not given beside the values
Binary call on Activity: Yes from 80% upward, No beneath that.

For orientation, consider the following solved cases.
>>> print(df.to_string())
                                smiles_repr  label_class
0  CC1=C(/C=C/C(C)=C\C=C\C(C)=C\C=O)C(C)(C)CCC1          Yes
1  CC1=C(/C=C/C(=C/C=C\C(C)=C\C=O)C2CC2)C(C)(C)CCC1          Yes
2  CC1=C(/C=C/C(C)=C\C=C\C(=C\C=O)C2CC2)C(C)(C)CCC1           No

Could you tell me if the measured Activity of `CC1=C(/C=C/C(C)=C\C=C\C(=C\C=O)C(C)C)C(C)(C)CCC1` reaches 80% or more?
Yes

Could you do the same for `CC1=C(/C=C/C(C)=C/C=C\C(C)=C\C=O)C(C)(C)CCC1` , please?
Yes

Another: `CC1=C(/C=C/C(=C\C=C\C(C)=C\C=O)C2CC2)C(C)(C)CCC1`
No

Every entry's value here was drawn from ChEMBL document CHEMBL1765050.
